These data points were gathered from PubChem BioAssay (NCI).

Can you tell me TGI for the items I'm about to list?
System: A498 renal
Test: NCI tumour cell line growth inhibition, 48 h
Quick reminder: number only, in µM, skip the unit.

Query block: Kindly indicate its recorded TGI. Item: CCC[CH2][Sn]([CH2]CCC)([O]C(=O)c1cc(F)cc(F)c1)[O][Sn]([CH2]CCC)([CH2]CCC)[O]C(=O)c1cc(F)cc(F)c1
Result block: 2.83

Query block: Kindly indicate its recorded TGI. Item: COc1ccc(/C=C2\CC(C)CC3C2=NN(c2ccccc2)C3c2ccc(OC)c(OC)c2)cc1OC (stereo not given)
Result block: 72.7

Query block: Kindly indicate its recorded TGI. Item: Cc1ccc(C2CC(c3cccc(Nc4ccncc4)c3)=NN2c2ccccc2)cc1 (stereo not given)
Result block: 5.63

Query block: Kindly indicate its recorded TGI. Item: CCOC(=O)c1[nH]c2nc(SC)nc(Nc3ccccc3Cl)c2c1N
Result block: 55.9

* * *

Test system: NCI/ADR-RES ovarian
Assay: NCI tumour cell line growth inhibition, 48 h
Can you tell me TGI for the items I'm about to list?

Query block: Kindly indicate its recorded TGI. Item: O=C(O)CCC(NC(=O)c1ccc(CNc2nc3ccccc3nc2C(=O)O)cc1)C(=O)O (stereo unspecified)
Result block: > 100 µM

Query block: Kindly indicate its recorded TGI. Item: CC1(C)CN=C(Nc2ccc(F)c(F)c2)S1
Result block: > 100 µM

Query block: Kindly indicate its recorded TGI. Item: c1ccc(C2=Nc3cccc4cccc(c34)N2)cc1
Result block: > 72.1 µM

Query block: Kindly indicate its recorded TGI. Item: CC1CCc2c(c(CC3CC(=O)NC(=O)C3)nn2-c2ccccc2)C1 (stereo unspecified)
Result block: > 100 µM

Query block: Kindly indicate its recorded TGI. Item: CC(O[Si](c1ccccc1)(c1ccccc1)C(C)(C)C)[C@H](NC(=O)OC(C)(C)C)C(=O)O (stereo partly specified)
Result block: > 100 µM

Query block: Kindly indicate its recorded TGI. Item: O=C(Nc1cccnc1)c1ccc2ccc3ccc(C(=O)Nc4cccnc4)nc3c2n1
Result block: > 100 µM

Query block: Kindly indicate its recorded TGI. Item: O=C1C(=O)N(c2cccc(C(F)(F)F)c2)C(=O)C(=O)C1c1nc2ccccc2s1
Result block: > 100 µM

Query block: Kindly indicate its recorded TGI. Item: O=c1c(-c2ccc(O)cc2)coc2cc(OC3OC(CO)C(O)C(O)C3O)cc(O)c12 (stereo unspecified)
Result block: > 10 µM

Query block: Kindly indicate its recorded TGI. Item: COC1(CC[C@H](C)COC2OC(CO)C(O)C(O)C2O)O[C@H]2C[C@H]3[C@@H]4CC=C5C[C@@H](OC6OC(CO)C(O)C(OC7OC(CO)C(O)C(O)C7O)C6OC6OC(C)C(O)C(O)C6O)CC[C@]5(C)[C@H]4CC[C@]3(C)[C@H]2[C@@H]1C (stereo partly specified)
Result block: 25.7 µM

Query block: Kindly indicate its recorded TGI. Item: C=C1C(=O)OC2CC3(C)CCCC(C)C3=CC12 (stereo unspecified)
Result block: 56.7 µM

Query block: Kindly indicate its recorded TGI. Item: C=CCc1cccc(/C=N\N=C(/N)NO)c1O
Result block: > 29.3 µM

Query block: Kindly indicate its recorded TGI. Item: CC(C)(C)c1ccc(O)c(CN(Cc2cc(C(C)(C)C)ccc2O)C2CCCCC2)c1
Result block: 42.1 µM

Query block: Kindly indicate its recorded TGI. Item: COc1ccc2c(c1)N(CCO)C1=C(C(=O)OC1)C2c1ccccc1 (stereo unspecified)
Result block: 2.66 µM

Query block: Kindly indicate its recorded TGI. Item: CCOC(=O)c1[nH]c2nc(SC)nc(Nc3ccccc3Cl)c2c1N
Result block: 73.3 µM

Query block: Kindly indicate its recorded TGI. Item: CCOC(=O)NC(=S)c1ccc(O)c2ccccc12
Result block: > 100 µM

Query block: Kindly indicate its recorded TGI. Item: CC(Oc1ccccc1Cl)C(=O)NN1C(=O)CSC1c1ccc(Cl)cc1 (stereo unspecified)
Result block: 61.4 µM

Query block: Kindly indicate its recorded TGI. Item: CCN(CC)COC(=S)S
Result block: > 100 µM

Query block: Kindly indicate its recorded TGI. Item: CCOC(=O)N1[C@@H]2CCC[C@@H]2C(=O)[C@@H]2CCC[C@@H]21
Result block: > 100 µM

Query block: Kindly indicate its recorded TGI. Item: O=C(O)c1ccc(Nc2nc3cc(C(F)(F)F)ccc3nc2-c2ccccc2)cc1
Result block: 70.2 µM

Query block: Kindly indicate its recorded TGI. Item: CC[C@@H](/C=C\CCC1(C[C@@H](N)CCC=C(C)C)OCCO1)O[Si](C(C)C)(C(C)C)C(C)C
Result block: 33.9 µM

Query block: Kindly indicate its recorded TGI. Item: O=C(Nc1nc(C23CC4CC(CC(C4)C2)C3)cs1)c1cc2c(ccc3ccccc32)oc1=O
Result block: > 100 µM
